- Experimental system: Protein skinhead-1 (Caenorhabditis elegans)
- Sequence (P34707 whole entry): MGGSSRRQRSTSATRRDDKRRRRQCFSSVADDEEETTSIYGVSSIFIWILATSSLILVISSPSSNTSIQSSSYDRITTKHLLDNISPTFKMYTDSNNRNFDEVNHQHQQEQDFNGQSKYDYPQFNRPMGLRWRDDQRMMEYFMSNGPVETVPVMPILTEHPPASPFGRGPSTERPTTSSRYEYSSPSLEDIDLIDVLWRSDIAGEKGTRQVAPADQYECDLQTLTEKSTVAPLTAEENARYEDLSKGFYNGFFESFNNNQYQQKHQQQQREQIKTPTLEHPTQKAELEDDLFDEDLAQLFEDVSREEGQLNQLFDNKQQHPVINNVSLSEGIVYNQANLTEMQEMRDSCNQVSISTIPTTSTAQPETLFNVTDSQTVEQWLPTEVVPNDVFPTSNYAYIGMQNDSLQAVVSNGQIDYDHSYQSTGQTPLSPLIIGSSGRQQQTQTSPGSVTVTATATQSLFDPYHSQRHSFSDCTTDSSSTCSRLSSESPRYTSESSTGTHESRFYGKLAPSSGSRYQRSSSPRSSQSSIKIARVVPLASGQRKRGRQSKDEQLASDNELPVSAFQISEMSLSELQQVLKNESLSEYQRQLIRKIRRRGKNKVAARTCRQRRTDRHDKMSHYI
- Format: functional
Active and inactive are the calls of the source.
Classes used: true (1) = active, false (0) = inactive

entry_smiles=COc1cc2ccccc2cc1C(=O)Nc1nccs1 assigned_class="true (1)"
entry_smiles=Cc1ccc2ncnc(Nc3cccc([N+](=O)[O-])c3)c2c1 assigned_class="false (0)"
entry_smiles=COc1ccc(N2C(=O)/C(=C/c3ccc([N+](=O)[O-])cc3)C=C2c2ccccc2)cc1 assigned_class="false (0)"
entry_smiles=Cc1ccccc1-c1noc(-c2cccs2)n1 assigned_class="true (1)"
entry_smiles=Cc1cc2cc(CNC(=O)Cc3ccc([N+](=O)[O-])cc3)ccc2n1C assigned_class="false (0)"
entry_smiles=COc1ccc2c(c1)CC/C(=C/c1ccco1)C2=O assigned_class="true (1)"

Reference source for all entries: ChEMBL document CHEMBL1201862
